System: U251 CNS
Return exactly one item of Yes = active, No = inactive

Example cases with answers are listed next.
Cc1ccc(NSc2ccccc2[N+](=O)[O-])cc1 ... No
O=C(CC(O)c1ccncc1)c1ccccc1 (stereo not drawn) ... No
Oc1ccccc1Nc1nc2ccccc2c2occc12 ... No
C=C(C)[C@@H]1CC[C@]2(C(=O)O)CC[C@]3(C)[C@H](CC[C@@H]4[C@@]5(C)C[C@@H](CC#Cc6ccc(Br)cc6)C(=O)C(C)(C)[C@@H]5CC[C@]43C)[C@@H]12 ... No
CCCCCCCCCCCCCCCCOC(=O)c1c(C)[nH]c(/C=C2\N=C(c3ccc[nH]3)C=C2OC)c1C ... No
O=C(N/N=c1/ccoc2cccnc12)N1CCN(c2ncccn2)CC1 ... Yes
COc1cc(C(=O)N2CCN(c3ccccc3OC)CC2)c(N)cc1OCc1ccccc1 ... No

Here's the next entry for you.
For O=C1Nc2ccccc2/C1=C/c1cn(C(=O)c2c(Cl)cccc2Cl)c2ccccc12 , which call appears in the assay record?
No

###

Tested on: OVCAR-5 ovarian
experiment description: NCI tumour cell line growth inhibition, 48 h
For each record, write down the corresponding GI50.

# annotated cases, reported GI50 shown
Cn1ccnc1C(=O)/C=C/c1ccc(C(=O)Nc2ccccc2O)cc1 ... 2.39 µM
CO/N=C(\COc1ccc2c(c1)oc(=O)c1cc(OC)ccc12)c1cccc(OC)c1 ... > 100 µM
O=C1c2cccc3cccc(c23)C(=O)N1CCCCN1CCN(CCCCOc2ccc(-c3nc4ccc(N5CCOCC5)cc4[nH]3)cc2)CC1 ... > 100 µM
COc1cc2c3c(n(CCCCNC(=O)OCC4c5ccccc5-c5ccccc54)c(=O)c2cc1OC)-c1cc2c(cc1C3=O)OCO2 ... 17.4 µM
O=C1Nc2ccccc2/C1=C/c1cn(C(=O)c2c(Cl)cccc2Cl)c2ccccc12 ... 8.85 µM

Here's the next entry for you.
Simply: O=c1[nH]ccc2nc(-c3ccc(CN4CCC(c5nc(-c6ccccn6)n[nH]5)CC4)cc3)c(-c3ccccc3)cc12 , OVCAR-5 ovarian, GI50 = 37.8 µM

###

Tested on: MALME-3M melanoma
experiment description: NCI tumour cell line growth inhibition, 48 h
For each record, write down the corresponding TGI.

# annotated cases, reported TGI shown
COCOCc1cc(OCc2ccccc2)c(OC)cc1Br ... > 100 µM
COc1ccc(C(=O)/C=C/c2ccc(OCC(=O)O)cc2)cc1 ... > 100 µM

Here's the next entry for you.
Value of measured TGI for the entry O=C1c2cccc3cccc(c23)C(=O)N1CCCCN1CCN(CCCCOc2ccc(-c3nc4ccc(N5CCOCC5)cc4[nH]3)cc2)CC1 : > 100 µM

###

Test system: MCF7 breast
experiment description: NCI tumour cell line growth inhibition, 48 h; in the data active = GI50 below about 0.43 µM; inactive = the rest
Return exactly one item of active, inactive

O=C(Nc1ccc(Cl)cc1)c1ccc([N+](=O)[O-])o1 ... inactive

For COc1cc2c3c(n(CCCNC(=O)OCC4c5ccccc5-c5ccccc54)c(=O)c2cc1OC)-c1cc2c(cc1C3=O)OCO2 , which call appears in the assay record?
inactive

For O=C(CC(O)c1ccncc1)c1ccccc1 (stereo not given) , which call appears in the assay record?
inactive

For O=c1[nH]ccc2nc(-c3ccc(CN4CCC(c5nc(-c6ccccn6)n[nH]5)CC4)cc3)c(-c3ccccc3)cc12 , which call appears in the assay record?
active

For COc1cc(-n2cc(-c3ccc(F)cc3)[nH]c2=S)cc(OC)c1OC , which call appears in the assay record?
inactive
